# SYSTEM_UNDER_TEST: cGMP-specific 3',5'-cyclic phosphodiesterase (Homo sapiens, UniProt O76074)
# ASSAY_PROTOCOL: Inhibition of PDE5 (unknown origin)
pIC50: −log10 of the molar value.
Assign class by pIC50: not lower than 8 means true; lower than 8 means false.

Worked cases, answers included:
{"COMPOUND": "COc1ccc(CNc2nc(OCc3ccccn3)ncc2C(=O)N[C@H]2CC[C@@H](O)CC2)cc1Cl", "LABEL": "true"}
{"COMPOUND": "COc1ccc(CNc2nc(OCc3ccccn3)ncc2C(=O)NCCN2CCOCC2)cc1Cl", "LABEL": "true"}
{"COMPOUND": "COc1ccc(CNc2nc(N3CCO[C@H](CO)C3)ncc2C(=O)NCc2ccccn2)cc1Cl", "LABEL": "false"}

In: Reported pIC50 reaches at least 8 for COc1ccc(CN=c2[nH]c(N3CCC[C@H]3CO)ncc2C(=O)NCc2ncccn2)cc1Cl (stereo in doubt; T6) ?
Out: true

In: Query COc1ccc(CN=c2[nH]c(N3CCC[C@H]3CO)ncc2C(=O)NCc2ncccn2)cc1Cl (stereo in doubt; T5) next
Out: false

In: Query COc1ccc(CNc2nc(N3CCCC[C@H]3CO)ncc2C(=O)NCc2ccccn2)cc1Cl next
Out: false

----------
# SYSTEM_UNDER_TEST: cGMP-specific 3',5'-cyclic phosphodiesterase (Homo sapiens)
REPORTED_METRIC: pIC50
Reminder that pIC50 is minus the log10 of a molar concentration.

Some entries whose results are on file:
{"SMILES_REPR": "COc1ccc(CNc2nc(N3CCC[C@H]3CO)ncc2C(=O)NCCCO)cc1Cl", "pIC50": 8.18}
{"SMILES_REPR": "COc1ccc(CNc2nc(OCc3ccccn3)ncc2C(=O)NCCCO)cc1Cl", "pIC50": 7.89}
{"SMILES_REPR": "COc1ccc(CNc2nc(N3CCC[C@H]3CO)ncc2C(=O)NC[C@@H]2CN(C)CCO2)cc1Cl", "pIC50": 8.21}
{"SMILES_REPR": "COc1ccc(CNc2nc(N3Cc4ccccc4C[C@@H]3CO)ncc2C(=O)NCc2ccccn2)cc1Cl", "pIC50": 8.19}

Please turn your attention to the following entry.
In: Which value of pIC50 has been reported for COc1ccc(CNc2nc(OCc3ccccn3)ncc2C(=O)Nc2ncccn2)cc1Cl in the records?
Out: 7.92
